Reference for the values: a collection of fitness landscapes (doi:10.1016/j.celrep.2020.107928)

Assignment: determine reported one-hybrid fitness for binding NBS DNA for the given variants.
B1: Caulobacter ParB omega fusion; a variant is named by its letters at X, in order, B8GW30 (parent)
chain: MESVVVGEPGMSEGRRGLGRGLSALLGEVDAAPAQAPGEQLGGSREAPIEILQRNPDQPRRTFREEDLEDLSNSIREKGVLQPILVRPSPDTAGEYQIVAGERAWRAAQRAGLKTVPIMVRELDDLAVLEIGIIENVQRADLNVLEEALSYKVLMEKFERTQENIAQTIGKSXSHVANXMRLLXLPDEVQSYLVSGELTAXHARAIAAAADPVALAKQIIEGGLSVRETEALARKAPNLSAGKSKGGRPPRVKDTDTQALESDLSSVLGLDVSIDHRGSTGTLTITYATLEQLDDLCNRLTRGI

variants of: B1; assay: one-hybrid fitness for binding NBS DNA (the Noc-binding site; scaled: cognate 1, non-cognate 0); higher = stronger binding; settings: with NBS DNA site
Over roughly 81,000 sequences, “one-hybrid fitness for binding NBS DNA” has its median near -0.1; the highest 2% begin near 0.36. This is one part of a sample in which the highest values are shown more often than they occur.

A selection of reference data follows.
Entry TPRN : reported one-hybrid fitness for binding NBS DNA = ?
≤ 0.2

Entry QRWH : reported one-hybrid fitness for binding NBS DNA = ?
0.301

Entry QQDA : reported one-hybrid fitness for binding NBS DNA = ?
0.25

Entry RAGH : reported one-hybrid fitness for binding NBS DNA = ?
≤ 0.2

For the 2 variants below, give their one-hybrid fitness for binding NBS DNA values.
1. RAIR
2. PRNE

1. 0.207
2. ≤ 0.2

For the 6 variants below, give their one-hybrid fitness for binding NBS DNA values.
1. NWSC
2. RVRN
3. QRNQ
4. QCNM
5. QKHA
6. RALR

1: ≤ 0.2; 2: ≤ 0.2; 3: 0.439; 4: 0.224; 5: 0.28; 6: 0.32
